- method: Pharmacokinetics test in Balb/C mice
- Assay type: in vivo
- condition_set: male, mouse, po, p.o. 5 mg/kg, plasma, read-out: Half life t1/2 (converted)
Attribute: half-life
Put down the number, then write its unit next to it.

A selection of reference data follows.
COc1nc(-c2cccc(-c3cccc(NC(=O)c4nc5c(n4C)CCN(C)C5)c3Cl)c2Cl)ccc1CN1CC2(CC(NC(C)=O)C2)C1	14.3 h
COc1nc(-c2cccc(-c3cccc(NC(=O)c4nc5c(n4C)CCN(C)C5)c3Cl)c2Cl)ccc1CN[C@@H]1CCCC[C@@H]1O	15.2 h
COc1nc(-c2cccc(-c3cccc(NC(=O)c4nc5c(n4C)CCN(C)C5)c3Cl)c2Cl)ccc1CNC[C@H](C)O	47 h
COc1nc(-c2cccc(-c3cccc(NC(=O)c4nc5c(n4C)CCN(C)C5)c3Cl)c2Cl)ccc1CN1CC(NC(C)=O)C1	9.5 h
COc1nc(-c2cccc(-c3cccc(NC(=O)c4nc5c(n4C)CCN(C)C5)c3Cl)c2Cl)ccc1CN1CC2(C1)CN(C(C)=O)C2	6.7 h

Need half-life, item COc1nc(-c2cccc(-c3cccc(NC(=O)c4nc5c(n4C)CCN(C)C5)c3Cl)c2Cl)ncc1CN1CC(CNC(C)=O)C1
9.2 h

Need half-life, item COc1nc(-c2cccc(-c3cccc(NC(=O)c4nc5c(n4C)CCN(C)C5)c3Cl)c2Cl)ccc1CN1CC2(C1)CN(C(=O)C(C)C)C2
15.2 h

Need half-life, item COc1nc(-c2cccc(-c3cccc(NC(=O)c4nc5c(n4C)CCN(C)C5)c3Cl)c2Cl)ccc1CN1CC(C(=O)N(C)C)C1
10.9 h

Need half-life, item COc1nc(-c2cccc(-c3cccc(NC(=O)c4nc5c(n4C)CCN(C)C5)c3Cl)c2Cl)ccc1CNC1COC1
9 h

Need half-life, item COc1nc(-c2cccc(-c3cccc(NC(=O)c4nc5c(n4C)CCN(C)C5)c3Cl)c2Cl)ccc1CN1CC2(COC2)C1
20 h

Need half-life, item COc1nc(-c2cccc(-c3cccc(NC(=O)c4nc5c(n4C)CCN(C)C5)c3Cl)c2Cl)ccc1CN1CC2(CCC(=O)N2)C1
8.4 h

Need half-life, item COc1nc(-c2cccc(-c3cccc(NC(=O)c4nc5c(n4C)CCN(C)C5)c3Cl)c2Cl)ccc1CN1CC(F)C1
12 h

Need half-life, item COc1nc(-c2cccc(-c3cccc(NC(=O)c4nc5c(n4C)CCN(C)C5)c3Cl)c2Cl)ncc1CN1CC(CO)C1
10.5 h

* * *

Attribute: Emax
- target_under_test: PD-L1 protein on the surface of MC38-hPDL1 tumor cells (Homo sapiens, UniProt Q9NZQ7)
- Construct: expressed in transfected cells; host or cells: MC38-hPDL1 (mouse colon cancer cells)
- Sequence (Q9NZQ7 19-290): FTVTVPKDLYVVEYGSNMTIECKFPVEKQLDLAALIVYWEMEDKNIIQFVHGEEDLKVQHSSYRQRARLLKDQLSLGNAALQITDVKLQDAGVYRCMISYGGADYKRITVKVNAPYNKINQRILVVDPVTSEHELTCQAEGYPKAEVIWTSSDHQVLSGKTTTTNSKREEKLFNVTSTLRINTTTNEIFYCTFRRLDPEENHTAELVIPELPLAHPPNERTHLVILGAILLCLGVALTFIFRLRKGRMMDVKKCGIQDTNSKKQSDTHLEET
- method: Induction of endocytosis of PD-L1 on the surface of tumor cells (flow cytometry)
- Type: cell-based
- condition_set: MC38-hPDL1 cells, 16 hours incubation; read-out: MC38 maximum endocytosis rate
Please reply with the bare figure in % and do not write the unit itself.

COc1cc(C(=O)Nc2cccc(-c3cccc(NC(=O)c4nc5c(n4C)CCN(C)C5)c3Cl)c2C)ncc1CNCCO [Embodiment 37]	97
COc1nc(-c2cccc(-c3cccc(NC(=O)c4nc5c(n4C)CCN(C)C5)c3Cl)c2Cl)ccc1CN1CC(CNC(C)=O)C1 [Embodiment 181]	97

Need Emax, item COc1cc(C(=O)Nc2cccc(-c3cccc(NC(=O)c4nc5c(n4C)CCN(C)C5)c3Cl)c2C)ncc1CNCc1ncccc1OC [Embodiment 13]
87

Need Emax, item COc1nc(-c2cccc(-c3cccc(NC(=O)c4nc5c(n4C)CCN(C)C5)c3Cl)c2Cl)ccc1CN1CC(C(=O)N(C)C)C1 [Embodiment 183]
95

Need Emax, item COc1nc(-c2cccc(-c3cccc(NC(=O)c4nc5c(n4C)CCN(C)C5)c3Cl)c2Cl)ccc1CN1CC2(CCN(C(=O)C(C)C)C2)C1 [Embodiment 196]
96

Need Emax, item COc1nc(-c2cccc(-c3cccc(NC(=O)c4nc5c(n4C)CCN(C)C5)c3Cl)c2Cl)ccc1CNCC1(C#N)CC1 [Embodiment 213]
96

Need Emax, item COc1nc(-c2cccc(-c3cccc(NC(=O)c4nc5c(n4C)CCN(C)C5)c3Cl)c2Cl)ncc1CN[C@H]1CCOC[C@@H]1O (relative stereo) [Embodiment 228]
95

Need Emax, item COc1nc(-c2cccc(-c3cccc(NC(=O)c4nc5c(n4C)CCN(C)C5)c3Cl)c2Cl)ccc1CN1C[C@@H]2C[C@H]1CN2C(C)=O [Embodiment 205]
96

Need Emax, item COc1cc(C(=O)Nc2cccc(-c3cccc(NC(=O)c4nc5c(n4C)CCN(C)C5)c3Cl)c2C)ncc1CNCCF [Embodiment 18]
91

Need Emax, item COc1cc(C(=O)Nc2cccc(-c3cccc(NC(=O)c4nc5c(n4C)CCN(C)C5)c3Cl)c2C)ncc1CNCC(C)O (stereo in doubt) [Embodiment 38]
96

Need Emax, item CCn1c(C(=O)Nc2cccc(-c3cccc(-c4ccc(CN5CC6(C5)CN(C(C)=O)C6)c(OC)n4)c3Cl)c2Cl)nc2c1CCN(C)C2 [Embodiment 238]
95

Need Emax, item COc1nc(-c2cccc(-c3cccc(NC(=O)c4nc5c(n4C)CCN(C)C5)c3Cl)c2Cl)ccc1CN1CC2(CCC(=O)N2)C1 [Embodiment 126]
97

* * *

- target_under_test: human PD-1/PD-L1 binding (Homo sapiens, UniProt Q9NZQ7)
- Construct: PD-L1-His protein (19 to 238 amino acids) (Abcam #ab167713); purchased Abcam (PD-L1-His); R&D (PD-1-Fc) ab167713; 1086-PD
- Sequence (Q9NZQ7 19-238): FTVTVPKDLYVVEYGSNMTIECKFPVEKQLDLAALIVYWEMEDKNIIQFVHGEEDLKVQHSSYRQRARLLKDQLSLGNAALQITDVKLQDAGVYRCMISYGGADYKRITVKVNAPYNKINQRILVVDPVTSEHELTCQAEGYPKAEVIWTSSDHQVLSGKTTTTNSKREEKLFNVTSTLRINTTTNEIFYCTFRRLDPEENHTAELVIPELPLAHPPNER
- method: Inhibition of human PD-1/PD-L1 binding (TR-FRET/HTRF)
- condition_set: TR-FRET, PD-L1-His and PD-1-Fc; read-out: PD-1/PD-L1 binding IC50
Lab note: anything with IC50 below 6 nM is marked met; values at 6 nM or higher are marked not met.

Examples from the recorded data:
COc1nc(-c2cccc(-c3cccc(NC(=O)c4nc5c(n4C4CC4)CCN(C)C5)c3Cl)c2Cl)ccc1CN1CC2(CC(NC(C)=O)C2)C1	met
COc1nc(-c2cccc(-c3cccc(NC(=O)c4nc5c(n4C)CCN(C)C5)c3Cl)c2Cl)cnc1CN1CC2(C1)CN(C(C)=O)C2	met
COc1nc(-c2cccc(-c3cccc(NC(=O)c4nc5c(n4C)CCN(C)C5)c3Cl)c2Cl)ccc1CN1CC2CC(C1)N2C(=O)CC#N	not met
CCN1CCc2c(nc(C(=O)Nc3cccc(-c4cccc(NC(=O)c5cc(OC)c(CO)cn5)c4C)c3Cl)n2C)C1	not met

Consider COc1cc(C(=O)Nc2cccc(-c3cccc(NC(=O)c4nc5c(n4C)CCN(C)C5)c3Cl)c2C)ncc1CNCC(C)O (stereo in doubt) . Does its IC50 lie strictly below 6 nM?
met

Consider COc1cc(C(=O)Nc2cccc(-c3cccc(NC(=O)c4nc5c(n4C)CCN(C)C5)c3Cl)c2C)ncc1CNC[C@@H]1CCC(=O)N1 . Does its IC50 lie strictly below 6 nM?
met

Consider COc1nc(-c2cccc(-c3cccc(NC(=O)c4nc5c(n4C)CCN(C)C5)c3Cl)c2Cl)ccc1CN1CCN(C(=O)CC#N)CC1 . Does its IC50 lie strictly below 6 nM?
not met

Consider COc1cc(-c2cccc(-c3cccc(NC(=O)c4nc5c(n4C)CCN(C)C5)c3Cl)c2Cl)ncc1CNC[C@@H]1CCC(=O)N1 . Does its IC50 lie strictly below 6 nM?
met

Consider COc1nc(-c2cccc(-c3cccc(NC(=O)c4nc5c(n4C)CCN(C)C5)c3Cl)c2Cl)ccc1CNC[C@@H](C)O . Does its IC50 lie strictly below 6 nM?
not met

Consider CNC(=O)CNCc1ccc(-c2cccc(-c3cccc(NC(=O)c4nc5c(n4C)CCN(C)C5)c3Cl)c2Cl)nc1OC . Does its IC50 lie strictly below 6 nM?
not met

Consider COc1cc(NCc2cnc(C(=O)Nc3cccc(-c4cccc(NC(=O)c5nc6c(n5C)CCN(CC5CC5)C6)c4Cl)c3Cl)cc2OC)ccn1 . Does its IC50 lie strictly below 6 nM?
met

Consider COc1nc(-c2cccc(-c3cccc(NC(=O)c4nc5c(n4C)CCN(C)C5)c3Cl)c2Cl)ccc1CN1C[C@@H]2C[C@H]1CN2C(C)=O . Does its IC50 lie strictly below 6 nM?
not met

Consider COc1cc(C(=O)Nc2cccc(-c3cccc(NC(=O)c4nc5c(n4C)CCN(C)C5)c3Cl)c2C)ncc1CNCCF . Does its IC50 lie strictly below 6 nM?
met

Consider COc1nc(-c2cccc(-c3cccc(NC(=O)c4nc5c(n4C)CCN(C)C5)c3Cl)c2Cl)ncc1CN1CC(CO)C1 . Does its IC50 lie strictly below 6 nM?
met

* * *

- target_under_test: PD-L1 protein on the surface of MC38-hPDL1 tumor cells (Homo sapiens, UniProt Q9NZQ7)
- Construct: expressed in transfected cells; host or cells: MC38-hPDL1 (mouse colon cancer cells)
- method: Induction of endocytosis of PD-L1 on the surface of tumor cells (flow cytometry)
- Assay type: cell-based
- condition_set: MC38-hPDL1 cells, 16 hours incubation; read-out: MC38 maximum endocytosis rate
Attribute: Emax
Please reply with the bare figure in % and do not write the unit itself.

A selection of reference data follows.
COc1nc(-c2cccc(-c3cccc(NC(=O)c4nc5c(n4C)CCN(C)C5)c3Cl)c2Cl)ccc1CN1CC2(C1)CN(C(=O)C1CC1)C2	95
COc1cc(NCc2cnc(C(=O)Nc3cccc(-c4cccc(NC(=O)c5nc6c(n5C)CCN(C)C6)c4Cl)c3C)cc2C2CC2)ccn1	88

Read the next record carefully.
Please state recorded Emax (tested on PD-L1 protein on the surface of MC38-hPDL1 tumor cells (Homo sapiens, UniProt Q9NZQ7)) of COc1cc(NCc2cnc(C(=O)Nc3cccc(-c4cccc(NC(=O)c5nc6c(n5C)CCN(C)C6)c4Cl)c3C)cc2OC)ccn1
88
